- System: LOX IMVI
- protocol.description: NCI tumour cell line growth inhibition, 48 h
Calls of active or inactive are those of the source. Rule as the data show it: active = GI50 up to about 1.1 µM and inactive = higher.
Reported GI50 values for a set of compounds
experimental.endpoint: GI50

In [3]: df
Out[3]:
                                   compound  test_target          test_result
0  C=CC1ON(C)CCc2cc(OC)c(OC)cc21 (centres undefined)     LOX IMVI  > 100 µM (inactive)
1  CC(C)=CC(=O)CC(=O)C(=O)NCCNC(=O)C(=O)CC(=O)C=C(C)C     LOX IMVI   > 50 µM (inactive)
2  COc1ccc2c(c1)[nH]c1c3ccc(OC)cc3oc(=O)c21     LOX IMVI  > 100 µM (inactive)
3  COC(=O)C(NC(=O)c1ccccc1)C(c1c(O)cc(O)cc1O)P(=O)(OC)OC (centres undefined)     LOX IMVI  > 100 µM (inactive)
4  CC(=O)Oc1cc(S(=O)(=O)Nc2nc(N)n[nH]2)c(S)cc1Cl     LOX IMVI  > 100 µM (inactive)
5            N#CC(C#N)=C/C=C/c1c(Cl)cccc1Cl     LOX IMVI   1.73 µM (inactive)
6  C=CCCC1(CC(Sc2ccccc2)P(=O)(c2ccccc2)c2ccccc2)OCCO1 (centres undefined)     LOX IMVI   > 10 µM (inactive)
7          C=CCN1C(=O)C(=O)N(CC=C)C(=O)C1=O     LOX IMVI  > 100 µM (inactive)
8           Fc1cccc2c1cc1ccc3cccc4ccc2c1c34     LOX IMVI  > 100 µM (inactive)
